Items are presented alongside their recorded Population Hoechst High Intensity Objects (%).
tested on: U2OS; test: Multiplex assay against U2OS; format: toxicity, cell-based; conditions: human, 24 h, 1 µM, compound concentration 1 uM, replicate 1
ASSAY_METRIC: Population Hoechst High Intensity Objects (%)

compound=COc1cc(NC(=O)CCN2CCC(OC(=O)Nc3ccccc3-c3ccccc3)CC2)c(Cl)cc1CNC[C@H](O)c1ccc(O)c2[nH]c(=O)ccc12 subject_of_test=U2OS endpoint_result=2
compound=CCCn1c(=O)c2[nH]c(C3CCCC3)nc2n(CCC)c1=O subject_of_test=U2OS endpoint_result=3
compound=O=C(NCCO)c1cccc(-c2cc(Nc3ccc(OC(F)(F)F)cc3)ncn2)c1 subject_of_test=U2OS endpoint_result=1
compound=CC(=O)NCCc1c(Cc2ccccc2)[nH]c2ccccc12 subject_of_test=U2OS endpoint_result=4
compound=CCNC1(C(N)=O)CCN(c2ncnc3c2nc(-c2ccccc2Cl)n3-c2ccc(Cl)cc2)CC1 subject_of_test=U2OS endpoint_result=3
compound=CN(C)c1ccnc2sc3c(=O)n(N4CCCCCC4)cnc3c12 subject_of_test=U2OS endpoint_result=2
compound=CCOc1c2c(c(OCC)c3ncccc13)CN(c1ccc(CS(=O)(=O)NC(=O)Cc3ccccc3OC)cc1C)C2=O subject_of_test=U2OS endpoint_result=3
compound="Cc1ccccc1C(=O)Nc1ccc(C(=O)N2CCCC(N(C)C)c3ccccc32)cc1.Cl (centres undefined)" subject_of_test=U2OS endpoint_result=0
compound="CNC[C@H](O)c1ccc(O)c(O)c1 [EPINEPHRINE]" subject_of_test=U2OS endpoint_result=2

====

test system: Fibroblast; assay: Multiplex assay against human fibroblast; type: toxicity, cell-based; details: 48 h, 1 µM, compound concentration 1 uM, replicate 2
ASSAY_METRIC: Population Membrane Permeable-Phenotype (%)

molecule="O=C(NCC(=O)N1CC[C@H](N[C@H]2CC[C@@](O)(c3ccc(-c4ncccn4)cn3)CC2)C1)c1cccc(C(F)(F)F)c1 [PF-4136309]" endpoint_result=7%
molecule=CN1CCN(c2nc3cc(C(F)(F)F)ccc3n3cccc23)CC1.O=C(O)/C=C\C(=O)O.O=C(O)/C=C\C(=O)O endpoint_result=0%
molecule="COc1cc(NC(=O)CCN2CCC(OC(=O)Nc3ccccc3-c3ccccc3)CC2)c(Cl)cc1CNC[C@H](O)c1ccc(O)c2[nH]c(=O)ccc12 [BATEFENTEROL]" endpoint_result=4%
molecule="CCCC(CCC)C(=O)O [VALPROIC ACID]" endpoint_result=4%
molecule=Cc1nc2ccc(Oc3ccc(F)cc3)cc2c(=O)n1C[C@H]1CCCN(C(C)C)C1.Cl endpoint_result=6%
molecule="CNC[C@H](O)c1ccc(O)c(O)c1 [EPINEPHRINE]" endpoint_result=6%
molecule="Cc1ccc(F)cc1C(=O)Nc1ccc(C(=O)N2Cc3cccn3Cc3ccccc32)c(Cl)c1 [LIXIVAPTAN]" endpoint_result=4%
molecule="Cc1ccc(C(C)(O)c2nc3ccccc3s2)c(C)c1 (stereo not drawn)" endpoint_result=5%

====

Items are presented alongside their recorded Population Tubulin-Different-Phenotype (%).
tested on: Fibroblast; assay: Multiplex assay against human fibroblast; format: toxicity, cell-based; conditions: 12 h, 10 µM, compound concentration 10 uM, replicate 1
ASSAY_METRIC: Population Tubulin-Different-Phenotype (%)

compound="CC(C)(C)c1ccc(S(=O)(=O)Nc2ccc(Cl)cc2C(=O)c2cc[n+]([O-])cc2)cc1 [VERCIRNON]" endpoint_result=46
compound="Cc1ccc(F)cc1C(=O)Nc1ccc(C(=O)N2Cc3cccn3Cc3ccccc32)c(Cl)c1 [LIXIVAPTAN]" endpoint_result=62
compound="O=C(NCC(=O)N1CC[C@H](N[C@H]2CC[C@@](O)(c3ccc(-c4ncccn4)cn3)CC2)C1)c1cccc(C(F)(F)F)c1 [PF-4136309]" endpoint_result=46
compound="Cc1ccc(/C(=C\\CN2CCCC2)c2ccccn2)cc1 [TRIPROLIDINE]" endpoint_result=44
